# Stated Conditions: in ethanol, 338.35 K
Reported Property: solubility (mole fraction)
Note: the reply should be a number with no unit written.

Field solubility (mole fraction) (entry `Cc1c(N)c(=O)n(-c2ccccc2)n1C` ) reads 0.6

---

# Stated Conditions: in water, 311.05 K
Reported Property: solubility (mole fraction)
Note: the reply should be a number with no unit written.

Field solubility (mole fraction) (entry `Cc1c(N)c(=O)n(-c2ccccc2)n1C` ) reads 0.19

---

# Stated Conditions: in sec-butanol, 307.25 K
Reported Property: solubility (mole fraction)
Note: the reply should be a number with no unit written.

Field solubility (mole fraction) (entry `Cc1c(N)c(=O)n(-c2ccccc2)n1C` ) reads 0.18
